These data points were gathered from patent US7135466B2.

# targetOfAssay: PDGF-Ra (Homo sapiens, UniProt P16234)
# Construct: host or cells: G-292 human osteosarcoma cells
# Sequence (P16234 24-1089): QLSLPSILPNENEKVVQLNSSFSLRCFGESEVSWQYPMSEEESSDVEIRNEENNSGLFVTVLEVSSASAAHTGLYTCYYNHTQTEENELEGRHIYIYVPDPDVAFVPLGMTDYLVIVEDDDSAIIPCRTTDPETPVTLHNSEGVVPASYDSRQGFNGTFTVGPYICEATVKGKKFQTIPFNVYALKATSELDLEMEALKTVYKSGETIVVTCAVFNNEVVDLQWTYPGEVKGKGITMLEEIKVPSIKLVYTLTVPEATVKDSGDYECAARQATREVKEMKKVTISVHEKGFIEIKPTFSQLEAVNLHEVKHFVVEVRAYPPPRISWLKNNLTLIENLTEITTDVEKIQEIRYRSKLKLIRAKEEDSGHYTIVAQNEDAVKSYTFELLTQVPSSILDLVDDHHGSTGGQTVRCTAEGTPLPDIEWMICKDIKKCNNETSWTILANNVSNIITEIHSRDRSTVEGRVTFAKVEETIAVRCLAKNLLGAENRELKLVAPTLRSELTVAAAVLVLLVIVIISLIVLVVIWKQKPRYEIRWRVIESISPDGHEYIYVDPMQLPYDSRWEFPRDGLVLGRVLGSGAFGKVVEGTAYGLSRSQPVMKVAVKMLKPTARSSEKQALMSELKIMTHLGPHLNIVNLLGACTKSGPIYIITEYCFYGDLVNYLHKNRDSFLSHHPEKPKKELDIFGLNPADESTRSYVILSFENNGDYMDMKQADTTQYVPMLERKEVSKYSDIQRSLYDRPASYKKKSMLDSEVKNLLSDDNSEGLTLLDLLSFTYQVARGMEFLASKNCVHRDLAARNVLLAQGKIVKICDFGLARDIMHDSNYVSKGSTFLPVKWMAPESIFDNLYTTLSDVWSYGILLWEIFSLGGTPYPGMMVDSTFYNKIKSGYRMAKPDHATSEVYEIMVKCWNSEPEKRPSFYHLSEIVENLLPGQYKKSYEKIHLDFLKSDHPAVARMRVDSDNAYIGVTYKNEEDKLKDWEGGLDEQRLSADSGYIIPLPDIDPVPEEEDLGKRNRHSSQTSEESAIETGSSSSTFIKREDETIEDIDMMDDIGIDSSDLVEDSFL
# testDetails: Inhibitory activity against PDGF-Ra phosphorylation by PDGF-AA stimulation using G292
# Assay type: cell-based
# appliedConditions: Pharmacological Test Example 1; > means inhibition at indicated concentration not more than 50%, < and << not less than 50%; read-out: PDGF (E) IC50
# IC50 values compiled below

Some compounds with known IC50 results, for comparison:
Would you mind telling me what IC50 value was observed for COc1cc2nccc(Oc3ccc(NC(=O)OCCc4cccc(C(F)(F)F)c4)c(C)c3C)c2cc1OC ? 16 nM

IC50 for COc1cc2nccc(Oc3ccc(NC(=O)OC(C)C)c(C)c3C)c2cc1OC ? < 10 nM

Any idea what its IC50 is? The compound is COc1cc2nccc(Oc3ccc(NC(=O)OCCCOc4ccccc4F)c(C)c3C)c2cc1OC < 10 nM

Reported IC50 for COc1cc2ncnc(Oc3ccc(NC(=O)OCc4ccccc4C)cc3)c2cc1OC : what is it? < 10 nM

Return reported IC50; argument: COc1cc2nccc(Oc3ccc(NC(=O)OCCCOc4ccccc4OC)cc3)c2cc1OC < 10 nM

Look up IC50 for this compound: COc1cc2ncnc(Oc3ccc(NC(=O)OCC4CCCCCC4)c(Cl)c3)c2cc1OC < 10 nM

Would you kindly share the measured IC50 for COc1cc2nccc(Oc3cc(C)c(NC(=O)OC(C)c4cccc(Br)c4)cc3C)c2cc1OC (stereo not shown) ? > 100 nM

IC50 for COc1cc2ncnc(Oc3ccc(NC(=O)OCCCOc4ccc(Cl)cc4)cc3)c2cc1OC ? < 10 nM

Continuing:
Please look up its IC50: COc1cc2nccc(Oc3ccc(NC(=O)OCCCOc4ccccc4Cl)cc3)c2cc1OC < 10 nM

Look up IC50: COc1cc2ncnc(Oc3ccc(NC(=O)OCc4ccccc4C)c(Cl)c3)c2cc1OC < 10 nM

###

# targetOfAssay: PDGF-Ra (Homo sapiens)
# Construct: host or cells: G-292 human osteosarcoma cells
# testDetails: Inhibitory activity against PDGF-Ra phosphorylation by PDGF-AA stimulation using G292
# Format: cell-based
# appliedConditions: > means inhibition at indicated concentration not more than 50%, < and << not less than 50%; read-out: PDGF (E) IC50
measuredEndpoint: IC50 (nM)

A selection of reference data follows.
Notebook entry, PDGF-Ra (Homo sapiens) assay: IC50 of COc1cc2ncnc(Oc3ccc(OCCCOc4ccccc4OC)cc3)c2cc1OC [Example 810] = ? 18

Lookup: IC50 / PDGF-Ra (Homo sapiens) / COc1cc2ncnc(Oc3ccc(NC(=O)Oc4ccccc4OC)cc3)c2cc1OC [Example 403] 14

Recorded IC50 for COc1cc2nccc(Oc3ccc(NC(=S)NCCN(C(C)C)C(C)C)c(C)c3C)c2cc1OC [Example 550] with PDGF-Ra (Homo sapiens), please? 77

Tell me reported IC50 for COc1cc2nccc(Oc3ccc(NC(=O)N[C@@H]4CCN(Cc5ccccc5)C4)cc3)c2cc1OC [Example 564] , tested with PDGF-Ra (Homo sapiens). 39

Which IC50 is reported with PDGF-Ra (Homo sapiens) for this entry: COc1cc2nccc(Oc3ccc(NC(=S)NC(=O)Cc4ccccc4F)cc3Cl)c2cc1OC [Example 730] ? 34

What value of IC50 on PDGF-Ra (Homo sapiens) does COc1cc2nccc(Oc3ccc(NC(=S)NC(=O)c4ccc(Br)s4)cc3Cl)c2cc1OC [Example 693] have? 56

For the record C#CCC(CC)OC(=O)N(C)c1ccc(Oc2ccnc3cc(OC)c(OC)cc23)cc1 (centres unmarked) [Example 496] , what value of IC50 is listed for PDGF-Ra (Homo sapiens)? 45

# get_value(readout= IC50, system= PDGF-Ra (Homo sapiens)) for COc1cc2nccc(Oc3ccc(NC(=S)NCCN4CCCCC4)c(C)c3C)c2cc1OC [Example 512] 29

(a) CCN(C(=S)NC(=O)Cc1ccccc1)c1ccc(Oc2ccnc3cc(OC)c(OC)cc23)cc1 [Example 1149]
(b) COc1cc2ncnc(Oc3ccc(NC(=O)NC4CCN(CC5CCCCC5)C4)c([N+](=O)[O-])c3)c2cc1OC (centres unmarked) [Example 587]
Consider entries a and b . Which has the numerically lower IC50? Give the chosen item's label as your response. a

(1) COc1ccc(C(=O)NC(=S)Nc2ccc(Oc3ncnc4cc(OC)c(OC)cc34)cc2)c(OC)c1 [Example 1175]
(2) COc1cc2ncnc(Oc3ccc(NC(=S)NC(=O)c4c(Cl)cccc4Cl)cc3)c2cc1OC [Example 1162]
(3) COc1cc2ncnc(Oc3ccc(NC(=O)NCCN(C)C)cc3)c2cc1OC [Example 627]
Arrange these compounds by their IC50, starting with the largest number. Sort the labels as requested; that list is your answer. 3, 1, 2
(3: 65 nM, 1: 37 nM, 2: 13 nM)
